System: JAK1(JH2domain-pseudokinase);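 further: KINOMEscan scanMAX binding as percent activity remaining versus control; lower means stronger binding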
test context: Compound Concentration (nM):1000
Reported values of Percent Control for individual entries
experimental readout: Percent Control (%)

| molecule | test target | experimental readout | reported value |
| --- | --- | --- | --- |
| COc1cc(N2CCN(C(C)C)CC2)ccc1Nc1nc(Nc2ccc(F)cc2C(=O)NC[C@@H](O)CO)c2cc[nH]c2n1 [GSK1392956A] | JAK1(JH2domain-pseudokinase) | Percent Control | 89 |
| CC1=C(C(=O)Nc2ccc3[nH]ncc3c2)C(c2ccc(Cl)c(Cl)c2)CC(=O)N1 (stereo not drawn) [GSK299115A] | JAK1(JH2domain-pseudokinase) | Percent Control | 86 |
| CN(C)CCNC(=O)Nc1ccc(N(C)c2ccnc(Nc3ccc(CS(C)(=O)=O)cc3)n2)cc1.Cl [GW830900A] | JAK1(JH2domain-pseudokinase) | Percent Control | 33 |
| Cl.O=C(Nc1ccc(Oc2ccc3[nH]c(NC(=O)c4ccccc4)nc3c2)cc1)Nc1cc(C(F)(F)F)ccc1F [GW709042A] | JAK1(JH2domain-pseudokinase) | Percent Control | 96 |
| COc1cc(C)c(N(C)C(=O)CN(C)C)cc1Nc1nc(Nc2cccc(F)c2C(N)=O)c2cc[nH]c2n1 | JAK1(JH2domain-pseudokinase) | Percent Control | 81 |
| CCS(=O)(=O)c1ccc(OC)c(Nc2ncc(-c3cccc(OC)c3)o2)c1 [GW580509X] | JAK1(JH2domain-pseudokinase) | Percent Control | 97 |
| C/C(Nc1ccc(S(N)(=O)=O)cc1)=C1/C(=O)Nc2ccccc21 [GW335962X] | JAK1(JH2domain-pseudokinase) | Percent Control | 61 |
| CN1CCN(C(=O)c2ccc(NC(=O)Nc3ccc(N(C)c4ccnc(Nc5ccc(CS(C)(=O)=O)cc5)n4)cc3)cc2)CC1.Cl [GW830263A] | JAK1(JH2domain-pseudokinase) | Percent Control | 13 |
| C[C@@H](Oc1cc(-n2cnc3ccc(OC4CCN(C)CC4)cc32)sc1C(N)=O)c1ccccc1Cl [GSK579289A] | JAK1(JH2domain-pseudokinase) | Percent Control | 75 |
| COC(=O)Nc1nc2ccc(Oc3ccc(NC(=O)Nc4cc(C(F)(F)F)ccc4F)cc3)cc2s1.Cl [GW693917A] | JAK1(JH2domain-pseudokinase) | Percent Control | 80 |
| COc1cc(C=NNc2ncnc3c2cnn3-c2ccccc2)ccc1O [GW513184X] | JAK1(JH2domain-pseudokinase) | Percent Control | 84 |
| O=C(Nc1n[nH]c2nc(-c3ccc(O)cc3)c(Br)cc12)C1CC1 | JAK1(JH2domain-pseudokinase) | Percent Control | 63 |
| CC1=C(C(=O)Nc2ccc3[nH]ncc3c2)C(c2ccc3ccccc3c2)CC(=O)N1 (stereo not drawn) [GSK270822A] | JAK1(JH2domain-pseudokinase) | Percent Control | 90 |
| Cc1cc(O)cc(C)c1/C=C/c1cncc(C(N)=O)c1 [GW435821X] | JAK1(JH2domain-pseudokinase) | Percent Control | 59 |
| COc1cccc(-n2ncc3c(N/N=C/c4ccncc4)ncnc32)c1 [GW784752X] | JAK1(JH2domain-pseudokinase) | Percent Control | 96 |
| NS(=O)(=O)c1ccc(N/N=C2\C(=O)Nc3ccc(Cl)cc32)cc1 [GW280670X] | JAK1(JH2domain-pseudokinase) | Percent Control | 80 |
| CCc1ccc(Oc2nccc(-c3c(-c4ccc(F)cc4)ncn3C3CCNCC3)n2)cc1 | JAK1(JH2domain-pseudokinase) | Percent Control | 100 |
| COc1cc2ncnc(Nc3ccc4c(cnn4Cc4ccccc4)c3)c2cc1OC.Cl [GW282449A] | JAK1(JH2domain-pseudokinase) | Percent Control | 92 |
